test: physchem; conditions: 1-octanol/phosphate buffered saline, pH 7.4
Description: Distribution coefficient, log D of the compound in 1-octanol and phosphate buffered saline at pH 7.4
# logD listing for each entry below
Format: numeric value only, no unit, no commentary.

Below are worked cases with known answers.
- NCCNc1ccc(N2C(=O)CN=C(C3CCCCC3)c3ccc(Cl)cc32)cc1: 1.7
- CC1(C)N=C(C2CCCCC2)c2ccc(C#N)cc2N(c2ccc(NCCNC3CCOCC3)cc2)C1=O: 2.9
- NCCNc1ccc(N2C(=O)CN(C3CCCCC3)Cc3ccc(Cl)cc32)cc1: 1.4

Summary for this compound, CC1(C)N=C(C2CCCCC2)c2ccc(C#N)cc2N(c2ccc(NCCN)cc2)C1=O : logD is 2.1

Summary for this compound, CC(C)N1N=C(C2CCCCC2)c2ccc(Cl)cc2N(c2ccc(CC3=NCCN3)cc2)C1=O : logD is 4.2

Where do the numbers come from? From ChEMBL document CHEMBL4385663.
